// reported IC50 per item
Target: GABA-A receptor; anion channel
Assay: Displacement of [3H]flunitrazepam from GABA-A central benzodiazepine receptor of mouse brain
assay.endpoint: IC50

INSERT INTO results (chemical_smiles, measured) VALUES
  ('Cc1nc2c(c(N)c1CO)c1ccccc1n2C', '> 100 µM'),
  ('COC(=O)c1c(C)nc2c(c1N)c1ccccc1n2C(=O)OC', '> 30 µM'),
  ('C=CCOC(=O)c1c(C)nc2c(c1N)c1ccccc1n2C', '> 100 µM'),
  ('COC(=O)c1c(-c2ccccc2)nc2c(c1N)c1ccccc1n2C', '> 30 µM'),
  ('CCCOC(=O)c1c(C)nc2c(c1N)c1ccccc1n2C', '> 100 µM'),
  ('COC(=O)c1c(C)nc2c(c1N)c1ccccc1n2C', '> 100 µM'),
  ('CCOC(=O)c1c(C)nc2c(c1N)c1ccccc1n2C', '> 100 µM'),
  ('Cc1nc2c(c(N)c1C(=O)O)c1ccccc1n2C', '> 100 µM'),
  ('COC(=O)c1c(C)nc2c(c1N)c1ccccc1n2C1CCCC1', '> 100 µM'),
  ('COP(=O)(OC)c1c(C)nc2c(c1N)c1ccccc1n2C', '> 30 µM'),
  ('CNc1c(C(=O)OC)c(C)nc2c1c1ccccc1n2C', '82.3 µM'),
  ('Cc1[nH]c2nc3ccccc3c-2c(N)c1C(N)=O', '> 100 µM'),
  ('Cc1nc2c(c(N)c1C(=O)OCc1ccccc1)c1ccccc1n2C', '> 30 µM'),
  ('CCn1c2ccccc2c2c(N)c(C(=O)OC)c(C)nc21', '> 100 µM');

====

System: Rattus norvegicus
Experiment: Tested for minimum effective dose required to cause motor in coordination in Geller-Seifter model in CFY rats (route of administration is peroral 30 min before testing)
Type: functional
Conditions: po, read-out: MED
assay.endpoint: minimal effective dose (mg/kg)

INSERT INTO assay_data (chemical_smiles, experimental_target, measured) VALUES
  ('COC(=O)c1c(-c2ccccc2)nc2c(c1N)c1ccccc1n2C', 'Rattus norvegicus', 50),
  ('CCn1c2ccccc2c2c(N)c(C(=O)OC)c(C)nc21', 'Rattus norvegicus', 5),
  ('COC(=O)c1c(C)nc2c(c1N)c1ccccc1n2C(=O)OC', 'Rattus norvegicus', 20),
  ('COC(=O)c1c(C)nc2c(c1N)c1ccccc1n2C', 'Rattus norvegicus', 10),
  ('CCOC(=O)c1c(C)nc2c(c1N)c1ccccc1n2C', 'Rattus norvegicus', 10),
  ('C=CCOC(=O)c1c(C)nc2c(c1N)c1ccccc1n2C', 'Rattus norvegicus', 20);

====

Molecular target: GABA-A receptor; anion channel
Test: Displacement of [35S]TBPS from GABA-A receptor complex at low umolar concentration
Type: protein-complex assay
pIC50: −log10 of the molar value.
Parameter pIC50: see the listing below.
assay.endpoint: pIC50

INSERT INTO results (chemical_smiles, measurement_qualifier, measured) VALUES
  ('CCOC(=O)c1c(C)nc2c(c1N)c1ccccc1n2C', '=', 5.34),
  ('CCCOC(=O)c1c(C)nc2c(c1N)c1ccccc1n2C', '=', 5.66),
  ('COP(=O)(OC)c1c(C)nc2c(c1N)c1ccccc1n2C', '<', 4.52),
  ('C=CCOC(=O)c1c(C)nc2c(c1N)c1ccccc1n2C', '=', 5.42),
  ('Cc1[nH]c2nc3ccccc3c-2c(N)c1C(N)=O', '<', 4.00),
  ('COC(=O)c1c(C)nc2c(c1N)c1ccccc1n2C', '=', 4.84),
  ('Cc1nc2c(c(N)c1C(=O)O)c1ccccc1n2C', '<', 4.00),
  ('CCn1c2ccccc2c2c(N)c(C(=O)OC)c(C)nc21', '=', 5.23),
  ('COC(=O)c1c(C)nc2c(c1N)c1ccccc1n2C1CCCC1', '=', 4.10),
  ('Cc1nc2c(c(N)c1C(=O)OCc1ccccc1)c1ccccc1n2C', '<', 4.52),
  ('COC(=O)c1c(-c2ccccc2)nc2c(c1N)c1ccccc1n2C', '=', 4.95),
  ('COC(=O)c1c(C)nc2c(c1N)c1ccccc1n2C(=O)OC', '=', 5.02),
  ('Cc1nc2c(c(N)c1CO)c1ccccc1n2C', '<', 4.00),
  ('CNc1c(C(=O)OC)c(C)nc2c1c1ccccc1n2C', '=', 4.77);

====

Test system: Rattus norvegicus
Assay: Tested for minimum effective dose required to cause motor in coordination in Geller-Seifter model in CFY rats (route of administration is peroral 30 min before testing)
Assay type: functional
Conditions: po, read-out: MED
Reported values of minimal effective dose for individual entries
assay.endpoint: minimal effective dose

INSERT INTO results (chemical_smiles, measured) VALUES
  ('Cc1[nH]c2nc3ccccc3c-2c(N)c1C(N)=O', '> 50 mg/kg'),
  ('COC(=O)c1c(C)nc2c(c1N)c1ccccc1n2C1CCCC1', '> 50 mg/kg'),
  ('Cc1nc2c(c(N)c1CO)c1ccccc1n2C', '> 50 mg/kg'),
  ('CCOC(=O)c1c(C)nc2c(c1N)c1ccccc1n2Cc1ccccc1', '> 50 mg/kg'),
  ('COP(=O)(OC)c1c(C)nc2c(c1N)c1ccccc1n2C', '> 20 mg/kg'),
  ('Cc1nc2c(c(N)c1C(=O)OCc1ccccc1)c1ccccc1n2C', '> 50 mg/kg'),
  ('Cc1nc2c(c(N)c1C(=O)O)c1ccccc1n2C', '> 50 mg/kg');

Each recorded value in this set is attributed to ChEMBL document CHEMBL1153654.
